These data points were gathered from PubChem BioAssay AID330.

# Tested on: P388 leukemia ip, CD2F1 mice, survival T/C
# procedure_text: NCI In Vivo Anticancer Drug Screen. Data for tumor model P388 Leukemia (intraperitoneal) in CD2F1 (CDF1) mice
# condition_info: endpoint: median survival time; dose: 100.0 mg/kg/injection; schedule: Q01DX005 (ip); vehicle: saline with Tween-80; higher = longer survival
Toxic doses and inconclusive results are not listed.
measured_parameter: T/C

A selection of reference data follows.
Exercise: Provide one value: measured T/C of `COC(=O)c1cc(=O)n(Cc2ccco2)c(=Nc2ccccc2)s1`
Key: 97 % of control

Exercise: Provide one value: measured T/C of CCC(C)n1c(C)nc2c(N)cc(C(F)(F)F)cc21 (configuration not stated)
Key: 91 % of control

Exercise: Provide one value: measured T/C of `Nc1ccccc1C(=O)Nc1ccc(Cl)cc1Cl`
Key: 92 % of control

Exercise: Provide one value: measured T/C of `Cn1nc(C(N)=O)c(=O)[nH]c1=O`
Key: 97 % of control

Exercise: Provide one value: measured T/C of `Oc1[nH]c2ccccc2c1N=Nc1nnc(-c2ccccc2)c(-c2ccccc2)n1`
Key: 107 % of control

Next:
Exercise: Provide one value: measured T/C of O=C1CC(=O)C(C(=O)c2ccccc2)N1 (configuration not stated)
Key: 97 % of control

Exercise: Provide one value: measured T/C of `NC(=O)c1cc(Cl)nc2nc(Cl)nc(N)c12`
Key: 105 % of control
